FYI, the data here is from ChEMBL document CHEMBL5360657.

target: UniProtKB Q9EQU3; assay: Antagonist activity at TLR9 in mouse Whole blood cell assessed as reduction in IFN-alpha level measured after 20 hrs by AlphaLISA method; type: tissue-based
Sequence (Q9EQU3 whole entry): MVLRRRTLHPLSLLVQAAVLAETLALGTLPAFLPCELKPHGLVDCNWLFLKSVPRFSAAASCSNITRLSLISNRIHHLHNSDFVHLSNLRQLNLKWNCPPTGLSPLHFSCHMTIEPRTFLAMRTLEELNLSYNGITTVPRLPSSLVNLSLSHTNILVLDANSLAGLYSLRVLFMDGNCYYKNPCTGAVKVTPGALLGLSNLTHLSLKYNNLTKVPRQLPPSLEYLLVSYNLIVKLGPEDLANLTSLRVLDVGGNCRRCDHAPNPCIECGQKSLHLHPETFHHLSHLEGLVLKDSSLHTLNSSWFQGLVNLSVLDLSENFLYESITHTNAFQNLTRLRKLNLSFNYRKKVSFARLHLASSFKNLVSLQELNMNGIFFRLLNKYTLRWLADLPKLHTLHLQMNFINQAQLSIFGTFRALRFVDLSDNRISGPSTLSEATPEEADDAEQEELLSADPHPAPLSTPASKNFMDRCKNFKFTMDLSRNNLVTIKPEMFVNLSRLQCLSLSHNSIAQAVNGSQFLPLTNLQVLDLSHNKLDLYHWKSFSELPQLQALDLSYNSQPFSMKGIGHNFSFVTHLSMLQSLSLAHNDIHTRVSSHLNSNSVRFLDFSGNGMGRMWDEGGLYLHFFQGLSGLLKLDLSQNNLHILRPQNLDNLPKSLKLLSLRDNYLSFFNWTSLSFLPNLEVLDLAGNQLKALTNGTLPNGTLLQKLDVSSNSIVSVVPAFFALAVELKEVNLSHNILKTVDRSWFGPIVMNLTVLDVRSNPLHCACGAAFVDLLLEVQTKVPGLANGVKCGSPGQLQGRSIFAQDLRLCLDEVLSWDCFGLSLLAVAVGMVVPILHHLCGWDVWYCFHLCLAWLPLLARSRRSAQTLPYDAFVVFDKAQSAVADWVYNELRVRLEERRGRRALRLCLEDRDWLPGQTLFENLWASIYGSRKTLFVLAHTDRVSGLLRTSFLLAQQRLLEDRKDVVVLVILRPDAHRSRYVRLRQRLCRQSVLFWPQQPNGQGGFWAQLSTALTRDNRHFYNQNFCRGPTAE
reported.endpoint: IC50

Reported IC50, compound Cc1cc(N2CCc3c(c(C)nn3CC34CCC(NC(=O)[C@@H]5COCCN5)(CC3)CC4)C2)c2cnn(C)c2n1 : ____ > 10 µM

---

Give measured solubility for each item. Keep answers brief.
test: Solubility of the compound; type: physicochemical

> print(dat)
                           substance.smiles  assay.value
1  Cc1cc(N2CCc3c(c(C)nn3CC34CCC(NC5CCC5)(CC3)CC4)C2)c2cnn(C)c2n1     > 175 µM
2  Cc1cc(N2CCc3c(c(C)nn3CC34CCC(NS(C)(=O)=O)(CC3)CC4)C2)c2cnn(C)c2n1       120 µM
3  CC(=O)NC12CCC(Cn3nc(C)c4c3CCN(c3cc(C)nc5c3cnn5C)C4)(CC1)CC2     > 175 µM

Provide each entry's solubility from the list below.
1. Cc1cc(N2CCc3c(c(C)nn3CC34CCC(N)(CC3)CC4)C2)c2cnn(C)c2n1
2. Cc1cc(N2CCc3c(c(C)nn3CC34CCC(N5CCOCC5)(CC3)CC4)C2)c2cnn(C)c2n1

1. > 175 µM
2. > 175 µM

---

Target: Toll-like receptor 9 (Homo sapiens)
Sequence (Q9NR96 whole entry): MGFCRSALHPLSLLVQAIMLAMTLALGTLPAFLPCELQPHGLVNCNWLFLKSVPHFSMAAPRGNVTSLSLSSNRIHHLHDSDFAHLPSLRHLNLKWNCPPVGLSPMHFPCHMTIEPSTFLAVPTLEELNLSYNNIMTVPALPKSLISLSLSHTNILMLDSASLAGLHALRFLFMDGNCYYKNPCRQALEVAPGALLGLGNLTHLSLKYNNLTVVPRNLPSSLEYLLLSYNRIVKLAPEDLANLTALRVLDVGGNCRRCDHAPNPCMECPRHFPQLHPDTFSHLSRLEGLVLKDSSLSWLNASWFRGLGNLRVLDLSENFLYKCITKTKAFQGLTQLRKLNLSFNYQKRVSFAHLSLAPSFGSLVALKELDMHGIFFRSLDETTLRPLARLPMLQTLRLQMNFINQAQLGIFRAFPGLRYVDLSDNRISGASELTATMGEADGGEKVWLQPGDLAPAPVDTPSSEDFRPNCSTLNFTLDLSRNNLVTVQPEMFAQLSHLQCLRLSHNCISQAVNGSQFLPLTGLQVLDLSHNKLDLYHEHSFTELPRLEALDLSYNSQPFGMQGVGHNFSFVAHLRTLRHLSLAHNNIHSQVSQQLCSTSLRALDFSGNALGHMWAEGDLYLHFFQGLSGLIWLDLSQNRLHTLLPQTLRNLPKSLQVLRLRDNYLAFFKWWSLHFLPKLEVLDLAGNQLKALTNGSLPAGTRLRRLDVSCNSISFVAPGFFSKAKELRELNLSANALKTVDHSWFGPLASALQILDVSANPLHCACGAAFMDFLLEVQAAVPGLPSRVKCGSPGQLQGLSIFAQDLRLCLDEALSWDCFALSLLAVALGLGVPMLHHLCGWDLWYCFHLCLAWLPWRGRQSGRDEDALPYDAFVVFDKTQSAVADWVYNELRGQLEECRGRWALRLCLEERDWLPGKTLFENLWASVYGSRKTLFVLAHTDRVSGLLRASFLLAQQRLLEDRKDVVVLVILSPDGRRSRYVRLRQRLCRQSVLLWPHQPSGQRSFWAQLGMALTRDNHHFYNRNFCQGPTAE
Assay: Antagonist activity at TLR9 in human Whole blood cell assessed as reduction in IFN-alpha level measured after 30 mins
Assay type: tissue-based
reported.endpoint: IC50 (nM)
One number for each entry, in nM.

For the molecule shown here, Cc1cc(N2CCc3c(c(C)nn3CC34CCC(NC(=O)[C@@H]5COCCN5)(CC3)CC4)C2)c2cnn(C)c2n1 , give the reported IC50. 1200

---

assay: Efflux ratio of permeability basolateral to apical over apical to basolateral side in human Caco-2 cells; type: ADME, cell-based
reported.endpoint: efflux ratio
Numbers only.

# input molecule: Cc1cc(N2CCc3c(c(C)nn3CC34CCC(N)(CC3)CC4)C2)c2cnn(C)c2n1 ; wanted: its efflux ratio 7.5

---

Molecular target: Toll-like receptor 8 (Homo sapiens, UniProt Q9NR97)
Sequence (Q9NR97 whole entry): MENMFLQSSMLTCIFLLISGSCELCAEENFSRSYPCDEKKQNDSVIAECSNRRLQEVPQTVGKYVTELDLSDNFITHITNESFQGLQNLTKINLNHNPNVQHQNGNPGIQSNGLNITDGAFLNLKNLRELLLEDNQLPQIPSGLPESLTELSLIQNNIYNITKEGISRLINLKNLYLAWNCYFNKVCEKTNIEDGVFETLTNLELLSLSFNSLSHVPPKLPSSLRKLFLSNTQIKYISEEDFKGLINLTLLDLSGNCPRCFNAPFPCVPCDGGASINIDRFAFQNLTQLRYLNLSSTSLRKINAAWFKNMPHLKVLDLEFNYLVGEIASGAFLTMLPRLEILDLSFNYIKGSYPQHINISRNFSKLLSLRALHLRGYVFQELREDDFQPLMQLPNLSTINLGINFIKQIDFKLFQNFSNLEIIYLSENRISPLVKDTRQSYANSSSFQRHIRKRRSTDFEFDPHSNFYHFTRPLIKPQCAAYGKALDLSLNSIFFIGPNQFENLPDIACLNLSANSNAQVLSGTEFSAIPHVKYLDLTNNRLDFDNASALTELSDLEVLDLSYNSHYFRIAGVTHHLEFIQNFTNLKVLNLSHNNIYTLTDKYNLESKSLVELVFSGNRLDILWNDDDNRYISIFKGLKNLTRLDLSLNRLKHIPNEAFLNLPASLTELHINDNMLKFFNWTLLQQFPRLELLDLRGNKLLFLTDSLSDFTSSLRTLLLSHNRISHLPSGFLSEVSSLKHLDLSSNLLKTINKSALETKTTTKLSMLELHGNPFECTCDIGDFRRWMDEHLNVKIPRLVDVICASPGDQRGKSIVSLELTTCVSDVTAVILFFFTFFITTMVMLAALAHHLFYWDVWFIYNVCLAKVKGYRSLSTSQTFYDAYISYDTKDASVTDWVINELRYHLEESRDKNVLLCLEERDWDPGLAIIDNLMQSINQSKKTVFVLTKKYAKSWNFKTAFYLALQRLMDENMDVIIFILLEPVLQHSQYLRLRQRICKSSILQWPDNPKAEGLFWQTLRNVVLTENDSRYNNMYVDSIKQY
Test: Antagonist activity at TLR8 in human Whole blood cell […] assessed as reduction in IL-6 level measured after 30 mins
Type: tissue-based
reported.endpoint: pIC50
Give bare numbers, as −log10 of the molar value.

Which value of pIC50 has been reported for Cc1cc(N2CCc3c(c(C)nn3CC34CCC(NC(=O)[C@@H]5COCCN5)(CC3)CC4)C2)c2cnn(C)c2n1 in the records? 7.13

---

Cytochrome P450 3A4 (Homo sapiens): reported pIC50 for various molecules.
Sequence (P08684 whole entry): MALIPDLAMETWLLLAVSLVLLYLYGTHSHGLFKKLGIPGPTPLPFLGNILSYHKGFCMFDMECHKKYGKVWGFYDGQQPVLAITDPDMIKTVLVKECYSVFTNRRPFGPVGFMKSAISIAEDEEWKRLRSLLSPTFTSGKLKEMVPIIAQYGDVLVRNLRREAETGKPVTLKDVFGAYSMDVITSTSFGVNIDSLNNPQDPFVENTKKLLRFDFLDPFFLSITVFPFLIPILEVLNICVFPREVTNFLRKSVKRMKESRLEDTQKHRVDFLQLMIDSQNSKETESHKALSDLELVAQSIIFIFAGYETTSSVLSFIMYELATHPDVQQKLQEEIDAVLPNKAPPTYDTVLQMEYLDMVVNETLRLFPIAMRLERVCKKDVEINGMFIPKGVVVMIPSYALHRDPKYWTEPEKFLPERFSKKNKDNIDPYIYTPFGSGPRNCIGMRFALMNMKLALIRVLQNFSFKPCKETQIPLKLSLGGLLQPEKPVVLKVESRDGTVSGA
Give bare numbers, as −log10 of the molar value.

For orientation, consider the following solved cases.
> print(dat)
                           substance.smiles                      assayed.target  assay.value
1  Cc1cc(N2CCc3c(c(C)nn3CC34CCC(NCC(F)F)(CC3)CC4)C2)c2cnn(C)c2n1  Cytochrome P450 3A4 (Homo sapiens)         5.07
2  Cc1cc(N2CCc3c(c(C)nn3CC34CCC(NC5CCC5)(CC3)CC4)C2)c2cnn(C)c2n1  Cytochrome P450 3A4 (Homo sapiens)         4.55

Now consider the entry below.
May I ask what pIC50 has been recorded for Cc1cc(N2CCc3c(c(C)nn3CC34CCC(NC5COC5)(CC3)CC4)C2)c2cnn(C)c2n1 ? 4.48

---

target: Toll-like receptor 9 (Homo sapiens); assay: Antagonist activity at TLR9 in human PBMC cells assessed as reduction in IFN alpha measured after 20 hrs by AlphaLISA assay; assay type: cell-based
reported.endpoint: IC50 (nM)
One number for each entry, in nM.

I need IC50 for every entry listed below, if you could help.
1. Cc1cc(N2CCc3c(c(C)nn3CC34CCC(N)(CC3)CC4)C2)c2cnn(C)c2n1
2. Cc1cc(N2CCc3c(c(C)nn3CC34CCC(N5CCN(C)CC5=O)(CC3)CC4)C2)c2cnn(C)c2n1
3. CN[C@H](C)C(=O)NC12CCC(Cn3nc(C)c4c3CCN(c3cc(C)nc5c3cnn5C)C4)(CC1)CC2

[580, 5500, 780]

State recorded IC50 for all listed compounds.
1. Cc1cc(N2CCc3c(c(C)nn3CC34CCC(N(C)C)(CC3)CC4)C2)c2cnn(C)c2n1
2. Cc1cc(N2CCc3c(c(C)nn3CC34CCC(NC5COC5)(CC3)CC4)C2)c2cnn(C)c2n1
3. Cc1cc(N2CCc3c(c(C)nn3CC34CCC(NC(=O)[C@@H]5COCCN5)(CC3)CC4)C2)c2cnn(C)c2n1

1. 710
2. 970
3. 1000

For each of the items listed, what is its IC50?
1. COCCNC12CCC(Cn3nc(C)c4c3CCN(c3cc(C)nc5c3cnn5C)C4)(CC1)CC2
2. Cc1cc(N2CCc3c(c(C)nn3CC34CCC(N5C[C@@H](C)O[C@@H](C)C5)(CC3)CC4)C2)c2cnn(C)c2n1

1: 350; 2: 1500
